biological target: xanthine oxidase (Mus musculus); construct: ICR mouse (Japan Charles River Co., Ltd., 6 W) was employed as test animal; from tissue; host or cells: living ICR mouse (whole animal; plasma uric acid measured); experiment: In vivo test: uric acid value in plasma of mouse after oral administration; settings: ICR mouse, 3 mg/10 mL/kg single oral administration, blood collected after one hour
Sequence (Q00519 whole entry): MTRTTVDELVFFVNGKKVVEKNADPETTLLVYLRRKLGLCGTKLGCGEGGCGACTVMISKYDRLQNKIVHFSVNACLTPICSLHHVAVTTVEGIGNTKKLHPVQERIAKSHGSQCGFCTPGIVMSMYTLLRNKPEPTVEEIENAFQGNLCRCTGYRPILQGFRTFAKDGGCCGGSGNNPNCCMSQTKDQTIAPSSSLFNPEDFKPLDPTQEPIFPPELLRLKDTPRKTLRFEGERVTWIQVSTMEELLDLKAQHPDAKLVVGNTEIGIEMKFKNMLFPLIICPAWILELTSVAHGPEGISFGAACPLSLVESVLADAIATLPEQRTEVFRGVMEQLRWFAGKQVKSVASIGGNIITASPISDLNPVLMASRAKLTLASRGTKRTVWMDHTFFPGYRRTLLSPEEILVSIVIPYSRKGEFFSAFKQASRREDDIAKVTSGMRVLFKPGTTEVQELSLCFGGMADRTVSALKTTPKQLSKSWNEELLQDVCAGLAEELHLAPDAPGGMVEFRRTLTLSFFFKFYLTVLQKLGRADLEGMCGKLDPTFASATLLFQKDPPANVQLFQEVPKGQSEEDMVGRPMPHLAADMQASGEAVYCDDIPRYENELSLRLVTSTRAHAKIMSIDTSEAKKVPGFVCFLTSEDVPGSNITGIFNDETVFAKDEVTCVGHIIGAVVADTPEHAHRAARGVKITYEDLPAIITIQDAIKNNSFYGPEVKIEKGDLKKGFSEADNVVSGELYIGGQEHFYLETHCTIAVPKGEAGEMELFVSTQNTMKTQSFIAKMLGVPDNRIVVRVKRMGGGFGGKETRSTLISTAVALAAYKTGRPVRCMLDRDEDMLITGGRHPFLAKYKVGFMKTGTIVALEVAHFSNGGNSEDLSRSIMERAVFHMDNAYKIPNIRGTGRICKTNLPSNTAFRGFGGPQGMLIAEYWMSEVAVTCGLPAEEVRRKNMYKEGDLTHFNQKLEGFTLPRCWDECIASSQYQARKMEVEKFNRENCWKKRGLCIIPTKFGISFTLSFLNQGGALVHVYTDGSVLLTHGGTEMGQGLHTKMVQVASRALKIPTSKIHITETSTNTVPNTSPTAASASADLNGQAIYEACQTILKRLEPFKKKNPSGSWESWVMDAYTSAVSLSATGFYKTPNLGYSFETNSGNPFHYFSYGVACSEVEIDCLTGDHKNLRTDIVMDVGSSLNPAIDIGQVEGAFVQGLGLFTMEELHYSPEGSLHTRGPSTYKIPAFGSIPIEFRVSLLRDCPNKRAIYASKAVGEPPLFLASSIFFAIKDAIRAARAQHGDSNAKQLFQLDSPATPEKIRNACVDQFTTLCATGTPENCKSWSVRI
Threshold check on Inhibition ratio (plasma uric acid value vs vehicle control group): strictly below 60% is yes; on or above 60% is no.

Compound structure: CC(C)COc1ccc(-c2nc3cccc(C(=O)O)c3o2)cc1[N+](=O)[O-]
Classification: yes
--
Compound structure: CC(C)COc1ccc(-c2nc3cccc(C(=O)O)c3s2)cc1C#N
Classification: yes
--
Compound structure: CC(C)COc1ccc(-c2nc3c(C(=O)O)cccc3[nH]2)cc1C#N
Classification: yes
--
Compound structure: CC(C)COc1ccc(-c2nc3ncnc(N)c3[nH]2)cc1[N+](=O)[O-]
Classification: no

###

pIC50, Cow milk Xanthine Oxidase (Bos taurus, UniProt P80457), per-entry values.
pIC50: −log10 of the molar value.

Compound structure: CC(C)COc1ccc(-c2nc3ncnc(O)c3[nH]2)cc1[N+](=O)[O-]
pIC50: 7.95
--
Compound structure: CC(C)COc1ccc(-c2nc3c(N)ncnc3o2)cc1[N+](=O)[O-]
pIC50: 7.35
--
Compound structure: CC(C)COc1ccc(-c2nc3ccncc3[nH]2)cc1[N+](=O)[O-]
pIC50: 7.23
--
Compound structure: CC(C)COc1ccc(-c2nc3ncnc(Cl)c3[nH]2)cc1[N+](=O)[O-]
pIC50: 7.20
